- Test system: Brassica rapa subsp. oleifera
- Assay comment: Herbicidal activity against Brassica rapa subsp. oleifera assessed as inhibition of root growth of rape seed at 100 ug/mL for 65 hr at 28 +/- 1 degC by root test
- Format: functional
- Measurement conditions: read-out: GI
Listed below: inhibition of growth at 100 µg/mL values for each entry.
Numbers only; they are read as %.

Field: example entries. Status: answers known.
CCOC(=O)c1c(SC)nn2c(=O)n(-c3cccc(C(F)(F)F)c3)nnc12: 37
CCOC(=O)c1c(C)nn2c(=O)n(-c3c(Cl)cc(C(F)(F)F)cc3Cl)nnc12: 25

Entry `CCOC(=O)c1c(SC)nn2c(=O)n(-c3c(Cl)cc(C(F)(F)F)cc3Cl)nnc12` has what inhibition of growth at 100 µg/mL?
9

---

- System: Brassica rapa subsp. oleifera
- Assay comment: Herbicidal activity against Brassica rapa subsp. oleifera assessed as inhibition of root growth of rape seed at 100 ug/mL for 65 hr at 28 +/- 1 degC by root test
- Format: functional
- Measurement conditions: read-out: GI
The threshold is inclusive: inhibition of growth at 100 µg/mL of exactly 10% counts as YES; values below receive NO.

These solved cases illustrate the format of a correct answer.
C=CCOc1cc(-n2nnc3c(C(=O)OCC)c(SC)nn3c2=O)c(F)cc1Cl: YES
CC#COc1cc(-n2nnc3c(C(=O)OCC)c(SC)nn3c2=O)c(F)cc1Cl: NO
CCOC(=O)c1c(SC)nn2c(=O)n(-c3cc(OC(C)C)c(Cl)cc3F)nnc12: YES
CCOC(=O)c1c(SC)nn2c(=O)n(-c3ccc(Cl)c(C(F)(F)F)c3)nnc12: YES
C=CCOc1cc(-n2nnc3c(C(=O)OCC)c(C)nn3c2=O)c(F)cc1Cl: NO

Evaluate `CCOC(=O)c1c(C(F)(F)F)nn2c(=O)n(-c3ccc(C(F)(F)F)cc3)nnc12` : inhibition of growth at 100 µg/mL at minimum 10%?
NO

Determine whether measured inhibition of growth at 100 µg/mL meets or exceeds 10% for `CCOC(=O)c1c(C(F)(F)F)nn2c(=O)n(-c3c(Cl)cc(C(F)(F)F)cc3Cl)nnc12`
YES

Test whether the compound `CCOC(=O)c1c(C(F)(F)F)nn2c(=O)n(-c3ccc(Cl)c(C(F)(F)F)c3)nnc12` records inhibition of growth at 100 µg/mL of 10% or higher.
YES

---

- Tested on: Echinochloa crus-galli
- Assay comment: Herbicidal activity against Echinochloa crus-galli (barnyard grass) assessed as inhibition of seedling growth at 100 ug/mL for 65 hr at 28 +/- 1 degC by cup test
- Format: functional
- Measurement conditions: read-out: GI
Measured inhibition of growth at 100 µg/mL by item
Just the number please, in %, no unit attached.

CCOC(=O)c1c(C)nn2c(=O)n(-c3ccc(Cl)cc3C(F)(F)F)nnc12: 14
CC#COc1cc(-n2nnc3c(C(=O)OCC)c(SC)nn3c2=O)c(F)cc1Cl: 32
CCOC(=O)c1c(SC)nn2c(=O)n(-c3c(Cl)cc(C(F)(F)F)cc3Cl)nnc12: 28
C=CCOc1cc(-n2nnc3c(C(=O)OCC)c(C)nn3c2=O)c(F)cc1Cl: 24

Which value of inhibition of growth at 100 µg/mL has been reported for `C=CCOc1cc(-n2nnc3c(C(=O)OCC)c(C(F)(F)F)nn3c2=O)c(F)cc1Cl` in the records?
16

Record request: inhibition of growth at 100 µg/mL value, item `CCOC(=O)c1c(SC)nn2c(=O)n(-c3ccccc3C(F)(F)F)nnc12`
0

Given the entry `CCOC(=O)c1c(C(F)(F)F)nn2c(=O)n(-c3ccc(Cl)cc3C(F)(F)F)nnc12` , report its measured inhibition of growth at 100 µg/mL.
21

Tell me the measured inhibition of growth at 100 µg/mL of `CC#COc1cc(-n2nnc3c(C(=O)OCC)c(C(F)(F)F)nn3c2=O)c(F)cc1Cl` , please.
28

inhibition of growth at 100 µg/mL lookup needed for `CCOC(=O)c1c(C(F)(F)F)nn2c(=O)n(-c3c(Cl)cc(C(F)(F)F)cc3Cl)nnc12` , thanks.
15

Requested field: inhibition of growth at 100 µg/mL. Item: `CCOC(=O)c1c(C(F)(F)F)nn2c(=O)n(-c3ccc(C(F)(F)F)cc3)nnc12`
18

---

- System: Brassica rapa subsp. oleifera
- Assay comment: Herbicidal activity against Brassica rapa subsp. oleifera assessed as inhibition of root growth of rape seed at 100 ug/mL for 65 hr at 28 +/- 1 degC by root test
- Format: functional
- Measurement conditions: read-out: GI
Property label: inhibition of growth at 100 µg/mL (%)
Record the value in %, omitting the unit from your answer.

These solved cases illustrate the format of a correct answer.
CC#COc1cc(-n2nnc3c(C(=O)OCC)c(C(F)(F)F)nn3c2=O)c(F)cc1Cl: 0
CCOC(=O)c1c(SC)nn2c(=O)n(-c3cc(C(F)(F)F)ccc3Cl)nnc12: 13
CCOC(=O)c1c(C)nn2c(=O)n(-c3ccc(Cl)c(C(F)(F)F)c3)nnc12: 89
CCOC(=O)c1c(C)nn2c(=O)n(-c3ccccc3C(F)(F)F)nnc12: 86
CCOC(=O)c1c(C(F)(F)F)nn2c(=O)n(-c3cccc(C(F)(F)F)c3)nnc12: 14
CCOC(=O)c1c(C(F)(F)F)nn2c(=O)n(-c3ccc(Cl)cc3C(F)(F)F)nnc12: 0
CCOC(=O)c1c(C(F)(F)F)nn2c(=O)n(-c3cc(C(F)(F)F)ccc3Cl)nnc12: 10
CCOC(=O)c1c(SC)nn2c(=O)n(-c3ccccc3C(F)(F)F)nnc12: 23

Requested field: inhibition of growth at 100 µg/mL. Item: `CCCOc1cc(-n2nnc3c(C(=O)OCC)c(SC)nn3c2=O)c(F)cc1Cl`
2

---

- System: Echinochloa crus-galli
- Assay comment: Herbicidal activity against Echinochloa crus-galli (barnyard grass) assessed as inhibition of seedling growth at 100 ug/mL for 65 hr at 28 +/- 1 degC by cup test
- Format: functional
- Measurement conditions: read-out: GI
Overview of recorded inhibition of growth at 100 µg/mL for various molecules
Report the value in % with no unit label.

CCOC(=O)c1c(C(F)(F)F)nn2c(=O)n(-c3cc(C(F)(F)F)ccc3Cl)nnc12: 2

Would you kindly look at the next entry?
Form field: reported inhibition of growth at 100 µg/mL of `C=CCOc1cc(-n2nnc3c(C(=O)OCC)c(SC)nn3c2=O)c(F)cc1Cl`
22

---

- Test system: Brassica rapa subsp. oleifera
- Assay comment: Herbicidal activity against Brassica rapa subsp. oleifera assessed as inhibition of root growth of rape seed at 100 ug/mL for 65 hr at 28 +/- 1 degC by root test
- Assay type: functional
- Measurement conditions: read-out: GI
Property label: inhibition of growth at 100 µg/mL (%)
Give just the number in %; leave the unit off.

See these solved cases before continuing.
CCCOc1cc(-n2nnc3c(C(=O)OCC)c(C(F)(F)F)nn3c2=O)c(F)cc1Cl: 5
CCOC(=O)c1c(C)nn2c(=O)n(-c3ccc(Cl)cc3C(F)(F)F)nnc12: 63
CCOC(=O)c1c(SC)nn2c(=O)n(-c3ccc(C(F)(F)F)cc3)nnc12: 18
CCOC(=O)c1c(C(F)(F)F)nn2c(=O)n(-c3ccccc3C(F)(F)F)nnc12: 9

// map `CCOC(=O)c1c(C)nn2c(=O)n(-c3ccc(C(F)(F)F)cc3)nnc12` to recorded inhibition of growth at 100 µg/mL (system: Brassica rapa subsp. oleifera)
90

Entry `C=CCOc1cc(-n2nnc3c(C(=O)OCC)c(C(F)(F)F)nn3c2=O)c(F)cc1Cl` , system Brassica rapa subsp. oleifera: what inhibition of growth at 100 µg/mL was measured?
2

Quick check: inhibition of growth at 100 µg/mL on Brassica rapa subsp. oleifera, item `CCOC(=O)c1c(C)nn2c(=O)n(-c3cc(C(F)(F)F)ccc3Cl)nnc12` ?
65

// fetch Brassica rapa subsp. oleifera inhibition of growth at 100 µg/mL for `CCCOc1cc(-n2nnc3c(C(=O)OCC)c(C)nn3c2=O)c(F)cc1Cl`
0

---

- Tested on: Echinochloa crus-galli
- Assay comment: Herbicidal activity against Echinochloa crus-galli (barnyard grass) assessed as inhibition of seedling growth at 100 ug/mL for 65 hr at 28 +/- 1 degC by cup test
- Assay type: functional
- Measurement conditions: read-out: GI
Respond with y for inhibition of growth at 100 µg/mL values of 20% and above, n for values below.

API: above_or_equal(metric=inhibition of growth at 100 µg/mL, cutoff=20%) for item `CCOC(=O)c1c(SC)nn2c(=O)n(-c3ccc(Cl)c(C(F)(F)F)c3)nnc12`
y

---

- System: Echinochloa crus-galli
- Assay comment: Herbicidal activity against Echinochloa crus-galli (barnyard grass) assessed as inhibition of seedling growth at 100 ug/mL for 65 hr at 28 +/- 1 degC by cup test
- Type: functional
- Measurement conditions: read-out: GI
Property label: inhibition of growth at 100 µg/mL
Include the unit after the number when you answer.

Examples with answers:
CCOC(=O)c1c(SC)nn2c(=O)n(-c3cc(OC(C)C)c(Cl)cc3F)nnc12: 20%
CCOC(=O)c1c(SC)nn2c(=O)n(-c3cccc(C(F)(F)F)c3)nnc12: 0%
CCCOc1cc(-n2nnc3c(C(=O)OCC)c(C)nn3c2=O)c(F)cc1Cl: 18%
CCOC(=O)c1c(SC)nn2c(=O)n(-c3cc(C(F)(F)F)ccc3Cl)nnc12: 11%

Quick one: inhibition of growth at 100 µg/mL for `CCOC(=O)c1c(C)nn2c(=O)n(-c3ccc(Cl)c(C(F)(F)F)c3)nnc12` ?
4%

So what's the measured inhibition of growth at 100 µg/mL for this one? `CCOC(=O)c1c(C)nn2c(=O)n(-c3ccc(C(F)(F)F)cc3)nnc12`
10%

Could you share which inhibition of growth at 100 µg/mL value was measured for `CCOC(=O)c1c(SC)nn2c(=O)n(-c3ccc(C(F)(F)F)cc3)nnc12` ?
22%

Find the recorded inhibition of growth at 100 µg/mL belonging to `CCOC(=O)c1c(C(F)(F)F)nn2c(=O)n(-c3ccc(Cl)c(C(F)(F)F)c3)nnc12` and report it.
0%

What value of measured inhibition of growth at 100 µg/mL is listed for `CCOC(=O)c1c(C)nn2c(=O)n(-c3c(Cl)cc(C(F)(F)F)cc3Cl)nnc12` ?
22%

Which value of inhibition of growth at 100 µg/mL has been reported for `CCOC(=O)c1c(C(F)(F)F)nn2c(=O)n(-c3ccccc3C(F)(F)F)nnc12` in the records?
9%

Request the reported inhibition of growth at 100 µg/mL associated with `CCCOc1cc(-n2nnc3c(C(=O)OCC)c(C(F)(F)F)nn3c2=O)c(F)cc1Cl`
20%
